B1: SFRS1 (parent)
chain: YSPRRSRGSPRYSPRHSRSRSRT

Variants of: B1
measurement-description: protein stability index of a GFP-peptide fusion (GPS, HEK-293T) (PSI 1-6); higher = more stable;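 further: lentivirally expressed fusions sorted by FACS into six bins by GFP to DsRed ratio, PSI derived from sequencing read proportions per bin multiplied by bin number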
test-conditions: c terminus: native
measure: protein stability index

sequence-change: G8C
result: 2.98

sequence-change: R20D
result: 4.36

sequence-change: Y1D
result: 3.9

sequence-change: S17T
result: 4.05

sequence-change: T23E
result: 4.56

sequence-change: R4S
result: 3.56

sequence-change: T23Y
result: 4.44

sequence-change: P3G
result: 4.3

sequence-change: R18V
result: 3.68

sequence-change: S2C
result: 1.94

sequence-change: Y12P
result: 3.99

sequence-change: R20C
result: 3.49

sequence-change: R22K
result: 3.77

sequence-change: S19N
result: 4.23

sequence-change: S9V
result: 3.8

sequence-change: R18K
result: 2.94

sequence-change: T23S
result: 3.4

sequence-change: S17D
result: 3.75

sequence-change: R5I
result: 2.33

sequence-change: S13I
result: 3.71

sequence-change: R15F
result: 2.17

sequence-change: R18A
result: 3.64

From: the supplement of paper PMC10567573
